Tgt: GABAA receptor α1β2γ2 (Homo sapiens, UniProt P14867+P18507)
Construct: expressed in transfected cells; host or cells: Xenopus laevis oocytes injected with cRNA
Sequence (P14867 28-456): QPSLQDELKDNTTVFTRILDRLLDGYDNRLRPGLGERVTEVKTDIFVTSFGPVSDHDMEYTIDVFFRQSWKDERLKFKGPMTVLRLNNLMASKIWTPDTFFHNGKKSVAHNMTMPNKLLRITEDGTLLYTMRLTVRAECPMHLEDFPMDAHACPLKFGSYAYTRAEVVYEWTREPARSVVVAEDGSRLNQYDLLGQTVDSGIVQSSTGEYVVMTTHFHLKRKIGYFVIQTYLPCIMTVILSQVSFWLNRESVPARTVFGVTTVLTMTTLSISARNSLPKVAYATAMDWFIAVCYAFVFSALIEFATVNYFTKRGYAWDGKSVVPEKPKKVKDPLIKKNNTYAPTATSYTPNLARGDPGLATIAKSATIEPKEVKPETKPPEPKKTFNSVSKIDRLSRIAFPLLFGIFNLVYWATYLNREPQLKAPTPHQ
Sequence (P47870 25-512 partner limits assumed): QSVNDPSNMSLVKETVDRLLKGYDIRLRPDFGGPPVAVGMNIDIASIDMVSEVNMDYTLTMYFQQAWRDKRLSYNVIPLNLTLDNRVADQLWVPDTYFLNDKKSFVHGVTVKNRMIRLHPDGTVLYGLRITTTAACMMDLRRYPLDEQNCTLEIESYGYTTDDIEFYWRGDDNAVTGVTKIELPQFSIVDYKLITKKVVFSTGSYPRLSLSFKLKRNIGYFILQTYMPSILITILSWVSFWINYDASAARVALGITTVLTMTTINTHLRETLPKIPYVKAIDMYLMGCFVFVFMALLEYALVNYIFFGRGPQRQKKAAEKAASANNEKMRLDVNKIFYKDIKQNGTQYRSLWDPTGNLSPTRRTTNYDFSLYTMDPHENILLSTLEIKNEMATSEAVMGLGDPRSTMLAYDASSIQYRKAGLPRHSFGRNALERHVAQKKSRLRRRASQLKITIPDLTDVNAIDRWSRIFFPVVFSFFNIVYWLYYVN
Sequence (P18507 40-475): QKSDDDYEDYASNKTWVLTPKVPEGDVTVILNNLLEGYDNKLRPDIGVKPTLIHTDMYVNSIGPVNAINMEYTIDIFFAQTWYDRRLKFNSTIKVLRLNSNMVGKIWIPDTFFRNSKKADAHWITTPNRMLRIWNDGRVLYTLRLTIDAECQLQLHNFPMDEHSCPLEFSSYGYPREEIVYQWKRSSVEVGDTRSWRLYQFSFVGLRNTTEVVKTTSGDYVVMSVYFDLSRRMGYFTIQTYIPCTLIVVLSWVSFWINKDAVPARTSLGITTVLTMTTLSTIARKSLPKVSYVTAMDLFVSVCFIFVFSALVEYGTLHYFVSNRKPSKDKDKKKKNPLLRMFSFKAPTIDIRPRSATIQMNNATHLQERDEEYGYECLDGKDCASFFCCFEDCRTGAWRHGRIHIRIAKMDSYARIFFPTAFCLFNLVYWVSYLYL
Protocol: Two-electrode voltage-clamp potentiation of GABA EC10 current in Xenopus oocytes, GABAA1
Type: cell-based
Experimental parameters: percentage potentiation of GABA EC10 current divided by that of diazepam
Value kind: Relative Potentiation for GABAA1

{"columns": ["Mol", "Numeric readout"],
 "data": [
  ["CCCN1Cc2nc3c(-c4ccc(F)nc4F)cccc3c(N)c2C1=O", 0.21],
  ["COc1ccc(CN2Cc3nc4c(-c5cccnc5OC)cccc4c(N)c3C2=O)cc1Cl", 0.25],
  ["COc1ccc(CN2Cc3nc4c(-c5cccnc5F)cccc4c(N)c3C2=O)cc1", 0.18],
  ["COc1ccc(CN2Cc3nc4c(-c5cc(F)cc(F)c5)cccc4c(N)c3C2=O)cc1OC", 0.24],
  ["COc1ncc(-c2cccc3c(N)c4c(nc23)CN(C2CC2)C4=O)cc1C", 0.088],
  ["CCN1Cc2nc3c(-c4cc(F)ccc4OC)cccc3c(N)c2C1=O", 0.054],
  ["COc1cccc(Cl)c1-c1cccc2c(N)c3c(nc12)CN(C1CCC1)C3=O", "−0.15"],
  ["CCCN1Cc2nc3c(-c4ccc(C)nc4OC)cccc3c(N)c2C1=O", 1.1],
  ["CCCN1Cc2nc3c(-c4ccc(F)nc4C)cccc3c(N)c2C1=O", 1.7],
  ["COc1ccc(F)c(-c2c(F)ccc3c(N)c4c(nc23)CN(C2CC2)C4=O)c1F", 0.062]
]}
